The values you see were collected from patent US20250223358A1.

- system: human CD3 (human, UniProt P07766 23-207; P04234 22-171; P09693 23-182)
- Sequence (P07766 23-207, chain 1 of 3): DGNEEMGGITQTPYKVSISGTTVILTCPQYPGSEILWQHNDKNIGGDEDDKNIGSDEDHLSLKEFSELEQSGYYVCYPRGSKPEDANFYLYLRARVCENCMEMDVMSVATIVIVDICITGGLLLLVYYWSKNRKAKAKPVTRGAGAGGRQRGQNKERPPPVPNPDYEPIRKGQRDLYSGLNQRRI
- Sequence (P04234 22-171, chain 2 of 3): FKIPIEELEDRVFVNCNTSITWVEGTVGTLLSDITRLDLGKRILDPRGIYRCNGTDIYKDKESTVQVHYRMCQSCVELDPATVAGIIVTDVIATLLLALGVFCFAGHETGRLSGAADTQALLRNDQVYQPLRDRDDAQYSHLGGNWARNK
- Sequence (P09693 23-182, chain 3 of 3): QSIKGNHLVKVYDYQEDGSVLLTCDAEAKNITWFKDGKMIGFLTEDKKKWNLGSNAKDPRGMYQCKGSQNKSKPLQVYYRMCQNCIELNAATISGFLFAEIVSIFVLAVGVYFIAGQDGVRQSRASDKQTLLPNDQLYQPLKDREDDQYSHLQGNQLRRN
- method: cell-based or functional assay
Record form. Attribute: Top signal_Fold change (Jurkat-NFAT-luciferase activation, normalized to ch40-C12-C10-E9). Fill in for each entry.
Answers are plain numbers, in fold.

Some solved cases for reference:
{"binder": "hu40E9-L2H5 (antibody, V domains shown) VH: EVQLVQSGAEVKKPGSSVKVSCKASGYTFSSYVIHWVRQAPGQGLEWMGYINPGSGVIKYNEKFKGRVTLTSDKSTSTAYMELSSLRSEDTAVYYCARDSYYSYDGFAYWGQGTLVTVSS VL: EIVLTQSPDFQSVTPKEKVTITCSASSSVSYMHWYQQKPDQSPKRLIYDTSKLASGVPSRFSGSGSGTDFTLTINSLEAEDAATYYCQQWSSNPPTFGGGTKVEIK", "quantitative-result": 0.79}
{"binder": "hu40E9-L2H10 (antibody, V domains shown) VH: EVQLVQSGAEVKKPGSSVKVSCKASGYTFSSYVIHWVRQAPGQGLEWMGYINPYNDVIKYNEKFKGRVTLTSDKSTSTAYMELSSLRSEDTAVYYCARDSYYSYEAFAYWGQGTLVTVSS VL: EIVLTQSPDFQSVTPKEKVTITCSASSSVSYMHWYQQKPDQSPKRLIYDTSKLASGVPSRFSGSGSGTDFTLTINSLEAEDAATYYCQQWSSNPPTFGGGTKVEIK", "quantitative-result": 1.01}

Turning now to a further record.
Request: Fill blank: measured Top signal_Fold change (Jurkat-NFAT-luciferase activation, normalized to ch40-C12-C10-E9) of the binder hu40E9-L2H6 (antibody, V domains shown) VH: EVQLVQSGAEVKKPGSSVKVSCKASGYTFSSYVIHWVRQAPGQGLEWMGYINPYNDVIKYNEKFKGRVTLTSDKSTSTAYMELSSLRSEDTAVYYCARESFSSYDGFAYWGQGTLVTVSS VL: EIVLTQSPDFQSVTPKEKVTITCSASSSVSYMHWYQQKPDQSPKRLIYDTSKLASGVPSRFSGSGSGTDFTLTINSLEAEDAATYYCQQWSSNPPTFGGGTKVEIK is ____.
Response: 0.74
